biological target: NAMPT (Homo sapiens, UniProt P43490); construct: His tag; host or cells: E. coli; assay: Biochemical inhibition assay: NAMPT enzymatic reaction, NMN quantified by mass spectrometry; conditions: NAMPT enzymatic reaction; read-out: Biochem IC50
Sequence (P43490 whole entry): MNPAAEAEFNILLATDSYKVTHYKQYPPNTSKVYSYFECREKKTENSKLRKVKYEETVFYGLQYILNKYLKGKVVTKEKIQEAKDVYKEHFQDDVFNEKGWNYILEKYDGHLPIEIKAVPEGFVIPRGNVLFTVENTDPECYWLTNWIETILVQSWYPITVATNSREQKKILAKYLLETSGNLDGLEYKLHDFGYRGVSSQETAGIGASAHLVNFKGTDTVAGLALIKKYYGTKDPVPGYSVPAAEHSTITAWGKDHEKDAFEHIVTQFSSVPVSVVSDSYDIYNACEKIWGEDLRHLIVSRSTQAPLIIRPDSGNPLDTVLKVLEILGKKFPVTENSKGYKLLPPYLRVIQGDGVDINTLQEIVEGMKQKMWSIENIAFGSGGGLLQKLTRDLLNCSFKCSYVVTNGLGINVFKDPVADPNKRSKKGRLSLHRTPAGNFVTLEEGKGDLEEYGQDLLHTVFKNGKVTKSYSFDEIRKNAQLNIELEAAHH
# IC50 per record follows

Field: example entries. Status: answers known.
CCCCOc1ccc(S(=O)(=O)c2ccc(CNC(=O)c3cc4ccncc4s3)cc2)cc1F 4.7 nM
COc1ccc(F)c(S(=O)(=O)c2ccc(CNC(=O)c3cc4cnccc4[nH]3)cc2)c1 77.8 nM
O=C(NCc1ccc(S(=O)(=O)c2cc(F)cc(Cl)c2)cc1)c1cc2cnccc2[nH]1 9.9 nM
O=C(NCc1ccc(S(=O)(=O)c2ccccc2Oc2ccccc2)cc1)c1cc2ccncc2s1 11 nM
Cc1ccc(Cl)cc1S(=O)(=O)c1ccc(CNC(=O)c2cc3ccncc3s2)cc1 4.8 nM

Sample CCCCOc1cccc(S(=O)(=O)c2ccc(CNC(=O)c3ccc4nccn4c3)cc2)c1 — what was its IC50?
4.7 nM

Sample CCCCOc1cc(F)ccc1S(=O)(=O)c1ccc(CNC(=O)c2ccc3nccn3c2)cc1 — what was its IC50?
51.2 nM

Sample CCCOc1ccc(S(=O)(=O)c2ccc(CNC(=O)c3cc4cnccc4[nH]3)cc2)cc1F — what was its IC50?
30.9 nM

Sample Cc1ccc(S(=O)(=O)c2ccc(CNC(=O)c3cc4cnccc4[nH]3)cc2)s1 — what was its IC50?
7 nM

Sample CCCCOc1ccc(Cl)cc1S(=O)(=O)c1ccc(CNC(=O)c2cc3ccncc3s2)cc1 — what was its IC50?
7.3 nM
